# Procedure details: change in splice reporter luminescence, either direction, cell-based, HEK293, spliceosome inhibition project, primary screen (AID 1101);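 also: HEK293 cells carrying a splicing-competent luciferase reporter gene; test concentration not given here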
# Stated conditions: HEK293 splicing luciferase reporter, 24 h, higher = more signal, called active from +8 up or from −8 down
Parameter: z-score
Provide a numeric answer; units are not to be included.

Provide only the value of recorded z-score for `[N-]=[N+]=Nc1ccccc1C[C@]1(C(=O)NCc2ccccc2)N=C(c2ccc(OCCCO)cc2)O[C@H]1c1ccccc1N=[N+]=[N-]`
0.716

Specify measured z-score for `COC(=O)C(CC#Cc1ccc2c(c1)[C@]1(C(=O)N2)[C@H](c2ccccc2OCCO)N2[C@H](c3ccccc3)[C@H](c3ccccc3)OC(=O)[C@H]2[C@@H]1C(=O)O)C(=O)OC` .
-0.597

For the molecule `CC#CC(=O)Oc1ccc(Br)cc1C=CC(=O)OCC` , give its reported z-score.
1.07

# return recorded z-score for input `O=C1O[C@H](c2ccccc2)[C@H](c2ccccc2)N2[C@H]1[C@@H](C(=O)NC[C@H](O)c1ccccc1)[C@]1(C(=O)Nc3ccc(C#CC4=CCCCC4)cc31)[C@H]2c1ccccc1OCCO`
-1.74

Supply recorded z-score for `CCCC=C(CCC)[C@@H](NS(=O)(=O)c1ccc(Cl)cc1)c1ccc(C(=O)OC)cc1` here.
0.184

Fill in reported z-score for this entry: `COc1ccc(C(=O)Nc2cccc(CN3C(=O)[C@]4(O[C@H](CCn5cc(CCO)nn5)[C@@H]([Si](C)(C)c5ccc(OC)cc5)[C@@H]4C)c4ccccc43)c2)cc1`
2.05

Give recorded z-score. O=C1NC(=O)C2C1C=CC(C(O)c1ccc(I)cc1)N2Nc1ccc(Cl)cc1Cl (configuration not stated)
-1.09

Provenance of the data: PubChem BioAssay
